Target protein (sequence): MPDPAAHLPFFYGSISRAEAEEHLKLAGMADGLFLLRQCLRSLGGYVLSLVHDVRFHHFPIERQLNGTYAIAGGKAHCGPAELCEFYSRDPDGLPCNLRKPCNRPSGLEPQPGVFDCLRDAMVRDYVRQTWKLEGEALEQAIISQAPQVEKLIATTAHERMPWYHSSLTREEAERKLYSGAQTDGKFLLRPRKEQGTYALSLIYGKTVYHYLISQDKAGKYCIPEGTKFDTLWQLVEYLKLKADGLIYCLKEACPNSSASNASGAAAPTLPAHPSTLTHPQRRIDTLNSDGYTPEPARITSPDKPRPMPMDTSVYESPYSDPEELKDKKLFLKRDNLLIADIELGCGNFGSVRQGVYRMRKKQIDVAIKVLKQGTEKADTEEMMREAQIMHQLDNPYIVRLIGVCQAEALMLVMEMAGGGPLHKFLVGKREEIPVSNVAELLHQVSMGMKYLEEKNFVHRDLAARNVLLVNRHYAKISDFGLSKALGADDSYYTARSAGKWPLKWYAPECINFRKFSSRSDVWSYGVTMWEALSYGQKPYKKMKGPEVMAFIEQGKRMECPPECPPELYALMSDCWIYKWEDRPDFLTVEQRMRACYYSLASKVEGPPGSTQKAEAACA
measurementName: pIC50
// scale note: pIC50 = -log10(conc_M); give the bare number

The compound C[C@H](NC(=O)CCc1ccc(OP(=O)(O)O)cc1)c1nc(Cc2ccc(Cl)c(Cl)c2)no1 showed pIC50 equal to 3.70

The reported numbers originate from ChEMBL document CHEMBL1131855.
